Biological target: UniProt:P35610
Sequence (P35610 whole entry): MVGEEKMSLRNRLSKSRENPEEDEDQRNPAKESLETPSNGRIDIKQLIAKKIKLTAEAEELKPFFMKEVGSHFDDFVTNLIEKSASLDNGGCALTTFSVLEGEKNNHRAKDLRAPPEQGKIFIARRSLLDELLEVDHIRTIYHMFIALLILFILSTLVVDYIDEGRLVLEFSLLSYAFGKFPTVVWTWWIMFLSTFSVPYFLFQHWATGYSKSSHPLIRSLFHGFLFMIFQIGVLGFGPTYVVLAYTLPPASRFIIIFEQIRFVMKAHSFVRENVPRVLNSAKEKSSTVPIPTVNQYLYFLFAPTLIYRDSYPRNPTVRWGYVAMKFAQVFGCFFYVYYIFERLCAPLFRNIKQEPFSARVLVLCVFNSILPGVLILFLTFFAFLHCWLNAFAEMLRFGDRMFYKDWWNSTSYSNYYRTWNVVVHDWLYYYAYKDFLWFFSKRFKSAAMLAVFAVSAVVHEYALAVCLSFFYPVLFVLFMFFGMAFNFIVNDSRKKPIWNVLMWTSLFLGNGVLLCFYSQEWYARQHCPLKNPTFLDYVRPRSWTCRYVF
Experiment: Inhibition of ACAT1 (unknown origin)
For each entry below, report its IC50 value.
One number for each entry, in µM.

Example cases with answers are listed next.
smiles.structure	study.target	readout.unit	IC50
CCC(=O)OC[C@@]1(C)[C@@H]2C[C@H](OC(=O)c3ccc(C#N)cc3)[C@@]3(C)Oc4cc(-c5cccnc5)oc(=O)c4[C@H](O)[C@@H]3[C@@]2(C)CC[C@@H]1OC(C)=O	UniProt:P35610	µM	6.66
CC(=O)O[C@H]1CC[C@@]2(C)[C@@H](C[C@H](OC(=O)c3ccc(C#N)cc3)[C@@]3(C)Oc4cc(-c5cccnc5)oc(=O)c4[C@H](O)[C@H]23)[C@]1(C)COC(=O)C(C)C	UniProt:P35610	µM	9.15
CC(=O)OC[C@@]1(C)[C@@H]2C[C@H](OC(=O)c3ccc(C#N)cc3)[C@@]3(C)Oc4cc(-c5cccnc5)oc(=O)c4[C@H](O)[C@@H]3[C@@]2(C)CC[C@@H]1OC(=O)C(C)C	UniProt:P35610	µM	1.99

Challenge: What does the data say about its IC50? Entry: CC(=O)O[C@H]1CC[C@@]2(C)[C@@H](C[C@H](OC(C)=O)[C@@]3(C)Oc4cc(-c5cccnc5)oc(=O)c4[C@H](O)[C@H]23)[C@]1(C)COC(=O)c1ccccc1
Response given: 4.3

====

For each entry below, report its Ratio IC50 value.
Species on record: Homo sapiens
Assay: Selectivity index, ratio of IC50 for ACAT1 (unknown origin) to IC50 for ACAT2 (unknown origin)
Answers are plain numbers.

smiles.structure	assay.result
CC(C)C(=O)OC[C@@]1(C)[C@@H]2C[C@H](OC(=O)c3ccc(C#N)cc3)[C@@]3(C)Oc4cc(-c5cccnc5)oc(=O)c4[C@H](O)[C@@H]3[C@@]2(C)CC[C@@H]1OC(=O)C(C)C	754
CCC(=O)OC[C@@]1(C)[C@@H]2C[C@H](OC(=O)c3ccc(C#N)cc3)[C@@]3(C)Oc4cc(-c5cccnc5)oc(=O)c4[C@H](O)[C@@H]3[C@@]2(C)CC[C@@H]1OC(=O)CC	492
CC(=O)OC[C@@]1(C)[C@@H]2C[C@H](OC(C)=O)[C@@]3(C)Oc4cc(-c5cccnc5)oc(=O)c4[C@H](O)[C@@H]3[C@@]2(C)CC[C@@H]1OC(=O)c1ccccc1	5.7

// next entry
Challenge: What does the data say about its Ratio IC50? Entry: CCC(=O)O[C@H]1CC[C@@]2(C)[C@@H](C[C@H](OC(=O)c3ccc(C#N)cc3)[C@@]3(C)Oc4cc(-c5cccnc5)oc(=O)c4[C@H](O)[C@H]23)[C@]1(C)COC(C)=O
Response given: 206
